Data origin, for the record: paper PMC9482650

- tested system: MAST2, Q6P0Q8
- Sequence (Q6P0Q8 1099-1202): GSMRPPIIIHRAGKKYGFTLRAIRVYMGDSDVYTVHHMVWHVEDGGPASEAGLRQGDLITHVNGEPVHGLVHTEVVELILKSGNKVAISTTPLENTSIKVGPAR
- run description: holdup assay
- Parameters: key: below the threshold = too weak to quantify, mostly under pKd 3.1 to 4
- condition details: plain residues with an end cap or a label only (N-terminal biotin on a linker: ado-ado)
property measured: pKd

binder: SSSVNVSSNL [CXCR1, P25024]
result: 5.13
--
binder: AHGSTRDQSI [KCNB1, Q14721]
result: below the threshold
--
binder: GSQSQVETEA [FKBP4, Q02790]
result: below the threshold
--
binder: PSVYSRSQYV [CLDN8, P56748]
result: below the threshold
